Biological target: UniProtKB Q9UBN7
Sequence (Q9UBN7 1-1215): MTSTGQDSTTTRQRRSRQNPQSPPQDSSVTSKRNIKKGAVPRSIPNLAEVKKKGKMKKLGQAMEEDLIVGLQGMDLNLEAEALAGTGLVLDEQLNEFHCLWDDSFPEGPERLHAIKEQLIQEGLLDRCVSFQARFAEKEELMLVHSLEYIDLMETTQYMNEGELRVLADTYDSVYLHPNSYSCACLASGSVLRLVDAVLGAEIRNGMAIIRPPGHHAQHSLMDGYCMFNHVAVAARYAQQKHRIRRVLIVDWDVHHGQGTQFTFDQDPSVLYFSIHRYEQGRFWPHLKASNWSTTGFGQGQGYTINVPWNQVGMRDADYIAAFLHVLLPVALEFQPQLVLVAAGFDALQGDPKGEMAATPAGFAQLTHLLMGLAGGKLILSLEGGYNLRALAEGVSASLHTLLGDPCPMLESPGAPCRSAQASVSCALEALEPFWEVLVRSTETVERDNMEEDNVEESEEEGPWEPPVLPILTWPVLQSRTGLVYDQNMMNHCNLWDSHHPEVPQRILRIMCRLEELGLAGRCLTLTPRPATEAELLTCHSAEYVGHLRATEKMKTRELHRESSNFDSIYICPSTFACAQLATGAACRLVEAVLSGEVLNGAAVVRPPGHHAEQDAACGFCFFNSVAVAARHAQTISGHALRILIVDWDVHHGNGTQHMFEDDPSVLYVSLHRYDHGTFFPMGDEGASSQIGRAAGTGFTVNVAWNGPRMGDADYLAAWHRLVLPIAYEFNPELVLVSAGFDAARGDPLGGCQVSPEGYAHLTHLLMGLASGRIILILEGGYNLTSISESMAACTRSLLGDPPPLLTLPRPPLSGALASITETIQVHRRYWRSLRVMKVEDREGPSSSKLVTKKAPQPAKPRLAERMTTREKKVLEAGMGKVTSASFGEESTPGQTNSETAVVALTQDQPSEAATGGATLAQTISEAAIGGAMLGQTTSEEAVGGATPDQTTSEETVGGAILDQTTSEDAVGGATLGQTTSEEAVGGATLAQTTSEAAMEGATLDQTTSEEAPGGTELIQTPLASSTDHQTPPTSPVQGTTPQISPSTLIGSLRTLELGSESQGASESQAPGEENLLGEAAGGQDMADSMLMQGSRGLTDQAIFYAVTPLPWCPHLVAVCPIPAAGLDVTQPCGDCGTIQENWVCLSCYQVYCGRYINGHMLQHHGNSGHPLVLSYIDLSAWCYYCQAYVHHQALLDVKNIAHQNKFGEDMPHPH
READOUT TYPE: log10 of IC50 (log10 of the value in nM)

{"MOLECULE": "O=C(/C=C/c1ccc2c(=O)n(CC3CCCC3)cnc2c1)NO [Compound 10f]", "SYSTEM UNDER TEST": "UniProtKB Q9UBN7", "log10 of IC50": 1.34}
{"MOLECULE": "O=C(/C=C/c1ccc2c(=O)n(Cc3ccccc3)cnc2c1)NO [Compound 10h]", "SYSTEM UNDER TEST": "UniProtKB Q9UBN7", "log10 of IC50": 1.60}
{"MOLECULE": "CCCn1cnc2cc(/C=C/C(=O)NO)ccc2c1=O [Compound 10d]", "SYSTEM UNDER TEST": "UniProtKB Q9UBN7", "log10 of IC50": 1.68}
{"MOLECULE": "CCCCn1cnc2cc(/C=C/C(=O)NO)ccc2c1=O [Compound 10e]", "SYSTEM UNDER TEST": "UniProtKB Q9UBN7", "log10 of IC50": 1.46}
{"MOLECULE": "O=C(/C=C/c1ccc2c(=O)n(CCCl)cnc2c1)NO [Compound 10b]", "SYSTEM UNDER TEST": "UniProtKB Q9UBN7", "log10 of IC50": 2.51}
{"MOLECULE": "O=C(/C=C/c1ccc2c(=O)n(CCO)cnc2c1)NO [Compound 10c]", "SYSTEM UNDER TEST": "UniProtKB Q9UBN7", "log10 of IC50": 1.98}
{"MOLECULE": "O=C(/C=C/c1ccc2c(=O)n(Cc3cccc(F)c3)cnc2c1)NO [Compound 10j]", "SYSTEM UNDER TEST": "UniProtKB Q9UBN7", "log10 of IC50": 1.36}
{"MOLECULE": "O=C(/C=C/c1ccc2c(=O)n(Cc3ccc(F)cc3)cnc2c1)NO [Compound 10k]", "SYSTEM UNDER TEST": "UniProtKB Q9UBN7", "log10 of IC50": 1.62}
{"MOLECULE": "O=C(/C=C/c1ccc2c(=O)n(Cc3ccccc3F)cnc2c1)NO [Compound 10i]", "SYSTEM UNDER TEST": "UniProtKB Q9UBN7", "log10 of IC50": 1.40}
{"MOLECULE": "O=C(/C=C/c1ccc2c(=O)n(Cc3ccc(Cl)cc3)cnc2c1)NO [Compound 10l]", "SYSTEM UNDER TEST": "UniProtKB Q9UBN7", "log10 of IC50": 1.52}
{"MOLECULE": "Cc1ccc(Cn2cnc3cc(/C=C/C(=O)NO)ccc3c2=O)cc1 [Compound 10m]", "SYSTEM UNDER TEST": "UniProtKB Q9UBN7", "log10 of IC50": 1.67}
{"MOLECULE": "CCn1cnc2cc(/C=C/C(=O)NO)ccc2c1=O [Compound 10a]", "SYSTEM UNDER TEST": "UniProtKB Q9UBN7", "log10 of IC50": 1.90}

---

tested on: PC3 (prostate cancer) cells; assay: SRB cytotoxicity assay, PC3; assay type: cell-based; conditions: Homo sapiens, 48 h, read-out: Cytotoxicity IC50, PC3
pIC50: −log10 of the molar value.
Reported pIC50 is given for each of the following compounds.

{"COMPOUND": "O=C(/C=C/c1ccc2ncn(CCCl)c(=O)c2c1)NO", "SYSTEM UNDER TEST": "PC3 (prostate cancer) cells", "pIC50": 5.40}
{"COMPOUND": "O=C(/C=C/c1ccc2ncn(Cc3ccc(F)cc3)c(=O)c2c1)NO", "SYSTEM UNDER TEST": "PC3 (prostate cancer) cells", "pIC50": 5.98}
{"COMPOUND": "O=C(/C=C/c1ccc2c(=O)n(Cc3ccc(Cl)cc3)cnc2c1)NO [Compound 10l]", "SYSTEM UNDER TEST": "PC3 (prostate cancer) cells", "pIC50": 6.12}
{"COMPOUND": "O=C(/C=C/c1ccc2c(=O)n(Cc3ccccc3F)cnc2c1)NO [Compound 10i]", "SYSTEM UNDER TEST": "PC3 (prostate cancer) cells", "pIC50": 5.71}
{"COMPOUND": "O=C(/C=C/c1ccc2ncn(Cc3cccc(F)c3)c(=O)c2c1)NO", "SYSTEM UNDER TEST": "PC3 (prostate cancer) cells", "pIC50": 5.89}
{"COMPOUND": "O=C(/C=C/c1ccc2c(=O)n(CCCl)cnc2c1)NO [Compound 10b]", "SYSTEM UNDER TEST": "PC3 (prostate cancer) cells", "pIC50": 5.26}
{"COMPOUND": "O=C(/C=C/c1ccc2ncn(CC3CCCC3)c(=O)c2c1)NO", "SYSTEM UNDER TEST": "PC3 (prostate cancer) cells", "pIC50": 5.91}
{"COMPOUND": "O=C(/C=C/c1ccc2c(=O)n(Cc3ccc(F)cc3)cnc2c1)NO [Compound 10k]", "SYSTEM UNDER TEST": "PC3 (prostate cancer) cells", "pIC50": 5.83}
{"COMPOUND": "CCn1cnc2cc(/C=C/C(=O)NO)ccc2c1=O [Compound 10a]", "SYSTEM UNDER TEST": "PC3 (prostate cancer) cells", "pIC50": 5.77}
{"COMPOUND": "CCCn1cnc2cc(/C=C/C(=O)NO)ccc2c1=O [Compound 10d]", "SYSTEM UNDER TEST": "PC3 (prostate cancer) cells", "pIC50": 5.82}
{"COMPOUND": "O=C(/C=C/c1ccc2c(=O)n(CCO)cnc2c1)NO [Compound 10c]", "SYSTEM UNDER TEST": "PC3 (prostate cancer) cells", "pIC50": 5.30}
{"COMPOUND": "Cc1ccc(Cn2cnc3cc(/C=C/C(=O)NO)ccc3c2=O)cc1 [Compound 10m]", "SYSTEM UNDER TEST": "PC3 (prostate cancer) cells", "pIC50": 5.92}
{"COMPOUND": "CCCCn1cnc2ccc(/C=C/C(=O)NO)cc2c1=O", "SYSTEM UNDER TEST": "PC3 (prostate cancer) cells", "pIC50": 5.77}
{"COMPOUND": "O=C(/C=C/c1ccc2ncn(CCO)c(=O)c2c1)NO", "SYSTEM UNDER TEST": "PC3 (prostate cancer) cells", "pIC50": 5.33}
{"COMPOUND": "O=C(/C=C/c1ccc2c(=O)n(Cc3ccccc3)cnc2c1)NO [Compound 10h]", "SYSTEM UNDER TEST": "PC3 (prostate cancer) cells", "pIC50": 5.88}
{"COMPOUND": "O=C(/C=C/c1cccc(S(=O)(=O)Nc2ccccc2)c1)NO [Belinostat, belinostat, reference compound]", "SYSTEM UNDER TEST": "PC3 (prostate cancer) cells", "pIC50": 5.60}
{"COMPOUND": "O=C(/C=C/c1ccc2c(=O)n(Cc3cccc(F)c3)cnc2c1)NO [Compound 10j]", "SYSTEM UNDER TEST": "PC3 (prostate cancer) cells", "pIC50": 5.86}
{"COMPOUND": "CCCn1cnc2ccc(/C=C/C(=O)NO)cc2c1=O", "SYSTEM UNDER TEST": "PC3 (prostate cancer) cells", "pIC50": 5.54}
{"COMPOUND": "O=C(/C=C/c1ccc2ncn(CC3CCCCC3)c(=O)c2c1)NO", "SYSTEM UNDER TEST": "PC3 (prostate cancer) cells", "pIC50": 6.00}
